Attribution: ChEMBL document CHEMBL3301472

Assay: MMV: MTT Cytotoxicity Assay Day 3 pi, U87-CD4-CCR5 cells, % cell death @ 5mM compound
Type: toxicity, cell-based
Conditions: human, u87-cd4-ccr5, 5000 µM
measurement_name: % Cell Death
// keep it numeric: no unit symbol after the value

Would you please look over these solved cases?
>>> obs_value("Oc1c2c(nc3cc(-c4ccccc4)nn13)CCCC2")
37
>>> obs_value("CCCN(CCC)CCCNC(=O)c1cc2c(-c3ccc(OC)c(OC)c3)nn(C)c2s1")
51
>>> obs_value("COc1ccc(CCNC(=O)c2cc(S(=O)(=O)N3CC(C)CC(C)C3)ccc2Sc2ccc(F)cc2)cc1OC (centres undefined)")
39
>>> obs_value("Cn1c(C(=O)c2cccc3ccccc23)nc2ccccc21")
-32
>>> obs_value("CC(Oc1ccc(NC(=O)c2cccs2)cc1)C(=O)c1ccc(Cl)cc1 (centres undefined)")
-10
>>> obs_value("Cc1ccc(Nc2nc(-c3ccccn3)cs2)cc1")
24

For reference, reported % Cell Death for CC1CC2=C(CC1CNCCCN(C)C)C(C)(C)CCC2 (centres undefined) stands at -1

For reference, reported % Cell Death for CCOc1c(Br)cc(C2C(C(=O)OC)=CN(C)C=C2C(=O)OC)cc1OC stands at 30

For reference, reported % Cell Death for CCOC(=O)c1cn(CC)c2cc(N(C)CCc3ccc(OC)c(OC)c3)c(F)cc2c1=O stands at 22

For reference, reported % Cell Death for CCOc1ccc2nc(C)cc(Nc3ccc(Br)cc3)c2c1 stands at 82

For reference, reported % Cell Death for O=C(Nc1cccc(C2=NCCN2)c1)Nc1cccc(C2=NCCN2)c1 stands at 31

###

Recorded % Cell Death by entry
Assay: MMV: MTT Cytotoxicity Assay Day 3 pi, U87-CD4-CCR5 cells, % cell death @ 5mM compound
Assay type: toxicity, cell-based
Settings: human, u87-cd4-ccr5, 5000 µM
// keep it numeric: no unit symbol after the value

>>> obs_value("COC(=O)c1ccc(Cl)c2c1C1C=CCC1C(c1cccc3ccccc13)N2 (centres undefined)")
-6

For reference, reported % Cell Death for Cl.c1ccc2c(NCCCCCCNc3c4c(nc5ccccc35)CCCC4)c3c(nc2c1)CCCC3 stands at 12

For reference, reported % Cell Death for COc1ccc2c(c1OC)C(=O)N1c3ccccc3N=C(c3ccc(C)cc3)CC21 (centres undefined) stands at 87

For reference, reported % Cell Death for CC(=O)Nc1nnc(SCc2c(C)cc(C(C)(C)C)cc2C)s1 stands at 14

For reference, reported % Cell Death for OC1=C2C(=Nc3ccccc3SC2c2ccc(Br)cc2)c2ccccc21 (centres undefined) stands at 11

For reference, reported % Cell Death for Cc1ccc(-c2cc3nc4c(c(O)n3n2)CCCC4)cc1 stands at 70

For reference, reported % Cell Death for COc1ccc(C(=O)Nc2nonc2-c2ccc(OC)c(OC)c2)cc1Cl stands at 64

For reference, reported % Cell Death for COc1cccc(C(=O)NC(c2ccc(C)cc2)c2cc(Cl)c3cccnc3c2O)c1 (centres undefined) stands at 88

For reference, reported % Cell Death for COc1ccc(CNC2CCN(c3ccc(NC(=O)c4cccc(Cl)c4)cc3)CC2)cc1OC stands at -8

###

Assay: MMV: MTT Cytotoxicity Assay Day 7 pi of Assay #10 (NO washout), U87-CD4-CCR5 cells, % cell death @ 5mM compound
Type: toxicity, cell-based
Conditions: human, u87-cd4-ccr5, 5000 µM
Classification field: enter 1 (yes) for % Cell Death values not below 40, 0 (no) for values below it.

>>> assigned_class("Cl.OC(CNCc1ccccc1)Cn1c2ccccc2c2ccccc21 (centres undefined)")
"0 (no)"
>>> assigned_class("CCN1CCN(c2cc(C)c3cc(NC(=O)c4ccc(OC)c(OC)c4)ccc3n2)CC1")
"1 (yes)"
>>> assigned_class("CCN(CC)CCCNc1nc(-c2ccc(Cl)cc2)nc2ccccc12")
"0 (no)"

Hi team, for COc1ccc(-c2nonc2NC(=O)c2cccc(C)c2)cc1OC , is the recorded % Cell Death at or above 40?
0 (no)

Hi team, for COc1ccc(C(=O)NC(c2ccc(Cl)cc2Cl)c2cc(Cl)c3cccnc3c2O)cc1 (centres undefined) , is the recorded % Cell Death at or above 40?
1 (yes)

Hi team, for COc1ccc(-c2cc3c(nn2)-c2ccccc2C3=O)cc1 , is the recorded % Cell Death at or above 40?
1 (yes)

Hi team, for CC1CCCCN1CCCNC(=O)c1ccc2c(c1)sc1nc(-c3ccc(F)cc3)cn12 (centres undefined) , is the recorded % Cell Death at or above 40?
0 (no)

Hi team, for O=C(NCc1ccco1)C1CCN(S(=O)(=O)c2ccc(Cl)cc2)CC1 , is the recorded % Cell Death at or above 40?
0 (no)

Hi team, for Cc1ccc(Nc2nc(NCCO)c3ccccc3n2)cc1C , is the recorded % Cell Death at or above 40?
0 (no)

Hi team, for CC1CC2=C(CC1CNCCCN(C)C)C(C)(C)CCC2 (centres undefined) , is the recorded % Cell Death at or above 40?
0 (no)

Hi team, for O=C(c1ccccc1F)N(Cc1ccc(Cl)cc1)c1ccccn1 , is the recorded % Cell Death at or above 40?
1 (yes)

Hi team, for CC1CC(C)CN(C(=O)c2ccc(Cl)cc2Cl)C1 (centres undefined) , is the recorded % Cell Death at or above 40?
0 (no)

Hi team, for FC(F)(F)c1ccc(Nc2nnnc3ccccc23)cc1 , is the recorded % Cell Death at or above 40?
1 (yes)

Hi team, for CCOc1c(Cl)cc(CNCC(O)c2ccccc2)cc1OC (centres undefined) , is the recorded % Cell Death at or above 40?
0 (no)

Hi team, for CCn1c(SCC(=O)Nc2cc(C(F)(F)F)ccc2Cl)nc2ccccc2c1=O , is the recorded % Cell Death at or above 40?
0 (no)

###

Test: MMV: MTT Cytotoxicity Assay Day 7 pi of Assay #7 (compound washed out Day 1 pi), U87-CD4-CXCR4 cells, % cell death @ 5mM compound
Assay type: toxicity, cell-based
Details: human, u87-cd4-cxcr4, 5000 µM
# if measured % Cell Death < 50: t  # else: f

Worked cases, answers included:
>>> assigned_class("Cc1sc(NC(=O)c2ccco2)c(C(c2cccnc2)N2CCC(Cc3ccccc3)CC2)c1C (stereo not given)")
"f"
>>> assigned_class("c1ccc(/C2=N/c3ccccc3/N=C(/c3ccccc3)c3ccccc32)cc1")
"t"
>>> assigned_class("COc1cccc(Nc2nc(NCCO)c3ccccc3n2)c1.Cl")
"t"

Query molecule follows.
Find out if reported % Cell Death for Cc1ccc(N2C(=O)C3C(C2=O)C2(c4ccccc4)C(=O)C3(c3ccccc3)C(c3ccccc3)=C2c2ccccc2)cc1 (stereo not given) is less than 50
t

###

Experiment: MMV: MTT Cytotoxicity Assay Day 7 pi of Assay #7 (compound washed out Day 1 pi), U87-CD4-CXCR4 cells, % cell death @ 5mM compound
Assay type: toxicity, cell-based
Settings: human, u87-cd4-cxcr4, 5000 µM
measurement_name: % Cell Death
// keep it numeric: no unit symbol after the value

Would you please look over these solved cases?
>>> obs_value("COc1ccc(C(=O)NC(c2ccccc2Cl)c2cc(Cl)c3cccnc3c2O)cc1 (stereo not given)")
3
>>> obs_value("O=C1c2ccc3c4c(ccc(c24)C(=O)N1CCCCO)C(=O)N(CCCCO)C3=O")
-43
>>> obs_value("O=C(Nc1ccc(-c2nc3cc4ccccc4cc3[nH]2)cc1)c1cccc(Br)c1")
-24

For reference, reported % Cell Death for C=C(C)CCC(C)N1CCC(N2CCC(C(=O)NCCc3ccccc3)CC2)CC1 (stereo not given) stands at -27

###

Experiment: MMV: MTT Cytotoxicity Assay Day 7 pi of Assay #6 (compound washed out Day 1 pi), U87-CD4-CCR5 cells, % cell death @ 5mM compound
Format: toxicity, cell-based
Settings: human, u87-cd4-ccr5, 5000 µM
# if measured % Cell Death < 20: Condition met  # else: Condition not met

Worked cases, answers included:
>>> assigned_class("Cc1cc(C)c2nc(N3CCC(C(=O)NCCCN4CCC(N5CCCCC5)CC4)CC3)sc2c1")
"Condition met"
>>> assigned_class("O=C(NC1CCCCC1)C(c1cccs1)N(CCc1ccccc1)C(=O)c1ccco1 (stereo not given)")
"Condition not met"
>>> assigned_class("COc1ccc(C2c3ccc4ccccc4c3Oc3ncn(CCCN(C)C)c(=N)c32)cc1 (stereo not given)")
"Condition met"
>>> assigned_class("CCCCCCOC(=O)C1=C(C)NC(=O)NC1c1ccccc1F (stereo not given)")
"Condition met"
>>> assigned_class("COC(=O)c1ccc(C2C3=C(O)CC(c4ccc(F)cc4)CC3=Nc3ccccc3N2C(=O)c2ccccc2)cc1 (stereo not given)")
"Condition not met"
>>> assigned_class("CN(N=O)C1=C(NC2CCCCC2)C(=O)c2ccccc2C1=O")
"Condition met"

Find out if reported % Cell Death for Cc1ccc(-c2cc3c(SCC(=O)Nc4cc(C(F)(F)F)ccc4Cl)nccn3n2)cc1 is less than 20
Condition met

Find out if reported % Cell Death for COc1ccc(C(=O)Nc2ccc3nc(N4CCCCC4)cc(C)c3c2)cc1OC is less than 20
Condition not met

Find out if reported % Cell Death for COc1ccc(C(=O)C(CCC(CNC(C)(C)C)C(=O)c2ccc(OC)cc2)CNC(C)(C)C)cc1 (stereo not given) is less than 20
Condition not met
